Measured pIC50 values are reported for all entries that follow.
- Test system: human P2X3 receptor (Homo sapiens (Human))
- Sequence (P56373 whole entry): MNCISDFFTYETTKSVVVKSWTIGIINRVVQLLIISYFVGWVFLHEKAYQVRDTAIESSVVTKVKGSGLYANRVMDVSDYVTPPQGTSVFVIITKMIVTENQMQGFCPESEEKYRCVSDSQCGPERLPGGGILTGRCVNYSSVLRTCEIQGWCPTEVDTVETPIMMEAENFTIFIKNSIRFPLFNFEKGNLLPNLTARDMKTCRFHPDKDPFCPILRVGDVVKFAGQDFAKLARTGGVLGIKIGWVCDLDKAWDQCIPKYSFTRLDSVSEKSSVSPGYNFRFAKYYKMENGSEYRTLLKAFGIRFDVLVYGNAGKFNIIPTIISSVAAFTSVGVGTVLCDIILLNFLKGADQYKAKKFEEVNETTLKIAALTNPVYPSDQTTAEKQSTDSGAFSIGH
- Assay details: Evaluation of human P2X3 receptor inhibitory activity (Test Example 1)
- Type: cell-based
- Condition label: C6BU-1 cell transfected with human P2X3 receptor gene, FLIPR 384
Note on pIC50: it is the negative log10 of concentration, concentration in mol/L.

Some compounds with known pIC50 results, for comparison:
In [3]: df
Out[3]:
                            chemical_smiles  value_observed
0  COC(=O)[C@@H](C)Cn1c(=O)[nH]/c(=N\c2ccc(Oc3ccc(F)cn3)cc2)n(CC2CCC3(CC2)CC3)c1=O            7.85
1  C[C@@H](Cn1c(=O)[nH]/c(=N\c2ccc(Oc3cc(Cl)ccn3)cc2)n(Cc2ccc(Cl)cc2)c1=O)C(=O)O            8.10
2  CCn1c(=O)[nH]/c(=N\c2ccc(-c3ccc(C#N)cn3)cc2)n(Cc2ccc(Cl)cc2)c1=O            6.22

Now take the following compound into account.
Inquiry: // returns reported pIC50 for input "COc1cncc(Oc2ccc(/N=c3\[nH]c(=O)n(CC(C)(C)C(=O)O)c(=O)n3Cc3ccc(Cl)cc3)cc2)c1"
Reply text: 7.92
